I'd appreciate it if you could supply Decomposition efficiency of glycitin family in roasted soy flour values for the items below.
System: Crude diglycosidase
test-protocol: Examination of pH in the conversion into isoflavone aglycons by diglycosidase using soybean materials
Assay type: biochemical, Penicillium multicolor IAM7153
experimental-context: pH3, heat treatment of enzyme no, reaction time 3 h, 55° C.
One number for each entry.

INSERT INTO assay_data (chem_smiles, reported_value) VALUES
  ('COc1cc2c(=O)c(-c3ccc(O)cc3)coc2cc1O', 69.2);

API: the following record is the query input.
Prompt: # get_value(readout='Decomposition efficiency of glycitin family in roasted soy flour', item= COc1cc2c(=O)c(-c3ccc(O)cc3)coc2cc1O[C@@H]1O[C@H](COC(C)=O)[C@@H](O)[C@H](O)[C@H]1O )
Response: 30.8
